Target: Arabidopsis HPPD single point mutant "SEQ ID No. 46" (Arabidopsis thaliana, UniProt P93836, K421I)
Construct: encoding mutant HPPD polypeptide, plus containing at the 5' end a nucleic acid encoding an alanine and 6 histidine amino acids
Sequence (P93836 whole entry K421I): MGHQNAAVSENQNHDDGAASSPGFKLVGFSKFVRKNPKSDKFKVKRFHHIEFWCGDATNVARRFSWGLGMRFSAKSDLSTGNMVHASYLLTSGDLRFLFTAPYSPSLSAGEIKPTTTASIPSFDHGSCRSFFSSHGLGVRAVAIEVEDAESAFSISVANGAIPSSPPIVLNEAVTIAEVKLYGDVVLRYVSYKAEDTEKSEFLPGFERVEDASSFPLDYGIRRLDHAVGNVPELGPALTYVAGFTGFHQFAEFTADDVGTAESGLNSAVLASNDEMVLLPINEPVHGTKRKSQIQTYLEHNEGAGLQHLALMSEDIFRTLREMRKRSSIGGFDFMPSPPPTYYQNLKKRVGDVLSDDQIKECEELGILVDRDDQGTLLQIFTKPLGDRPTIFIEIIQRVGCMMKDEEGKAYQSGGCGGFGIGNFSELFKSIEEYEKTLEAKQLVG
Test: biochemical
pIC50: −log10 of the molar value.
quantity_measured: pIC50

| compound_structure_string | value_observed |
| --- | --- |
| Cc1nn(C)c(O)c1C(=O)c1ccc(C(F)(F)F)cc1S(C)(=O)=O | 4.30 |
| Cc1ccc(S(=O)(=O)Oc2c(C(=O)c3ccc(Cl)cc3Cl)c(C)nn2C)cc1 | 4.50 |

---

Recorded IC50, one value per entry.
Biological target: Arabidopsis HPPD single point mutant "SEQ ID No. 50" (Arabidopsis thaliana, UniProt P93836, K421V)
Construct: encoding mutant HPPD polypeptide, plus containing at the 5' end a nucleic acid encoding an alanine and 6 histidine amino acids
Assay: biochemical
quantity_measured: IC50

| compound_structure_string | value_observed |
| --- | --- |
| Cc1nn(C)c(O)c1C(=O)c1ccc(C(F)(F)F)cc1S(C)(=O)=O | 39.8 µM |
| Cc1ccc(S(=O)(=O)Oc2c(C(=O)c3ccc(Cl)cc3Cl)c(C)nn2C)cc1 | 31.6 µM |

---

Molecular target: Arabidopsis HPPD single point mutant "SEQ ID No. 35" (Arabidopsis thaliana, UniProt P93836, E252S)
Construct: encoding mutant HPPD polypeptide, plus containing at the 5' end a nucleic acid encoding an alanine and 6 histidine amino acids; Ala + His6 behind Met1 (N)
Sequence (P93836 whole entry E252S): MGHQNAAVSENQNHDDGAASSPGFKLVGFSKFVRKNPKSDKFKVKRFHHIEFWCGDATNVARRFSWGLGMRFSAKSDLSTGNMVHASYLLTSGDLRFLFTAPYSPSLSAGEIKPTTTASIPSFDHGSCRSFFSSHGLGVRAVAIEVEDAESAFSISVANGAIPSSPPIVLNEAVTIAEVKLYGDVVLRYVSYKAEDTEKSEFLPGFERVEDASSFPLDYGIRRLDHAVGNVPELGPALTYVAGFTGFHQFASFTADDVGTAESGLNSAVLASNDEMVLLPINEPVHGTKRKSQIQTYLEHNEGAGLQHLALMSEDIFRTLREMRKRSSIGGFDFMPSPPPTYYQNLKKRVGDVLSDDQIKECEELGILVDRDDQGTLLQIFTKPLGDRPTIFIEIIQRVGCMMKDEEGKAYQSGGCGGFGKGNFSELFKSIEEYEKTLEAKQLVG
Assay: biochemical

| compound_structure_string | IC50 |
| --- | --- |
| Cc1ccc(S(=O)(=O)Oc2c(C(=O)c3ccc(Cl)cc3Cl)c(C)nn2C)cc1 | 20 µM |
| Cc1nn(C)c(O)c1C(=O)c1ccc(C(F)(F)F)cc1S(C)(=O)=O | 50.1 µM |

---

Target: Arabidopsis HPPD single point mutant "SEQ ID No. 44" (Arabidopsis thaliana, UniProt P93836, L368M)
Construct: encoding mutant HPPD polypeptide, plus containing at the 5' end a nucleic acid encoding an alanine and 6 histidine amino acids; made in house; host or cells: E. coli BL21 (DE3) (described for the wild type construct)
Sequence (P93836 whole entry L368M): as the sequence (P93836 whole entry K421I) above, with L368M, I421K counted along it
Test: biochemical
pIC50: −log10 of the molar value.

| compound_structure_string | pIC50 |
| --- | --- |
| Cc1ccc(S(=O)(=O)Oc2c(C(=O)c3ccc(Cl)cc3Cl)c(C)nn2C)cc1 | 4.90 |

---

Target: Arabidopsis HPPD single point mutant "SEQ ID No. 40" (Arabidopsis thaliana, UniProt P93836, V269A)
Construct: encoding mutant HPPD polypeptide, plus containing at the 5' end a nucleic acid encoding an alanine and 6 histidine amino acids
Sequence (P93836 whole entry V269A): as the sequence (P93836 whole entry K421I) above, with V269A, I421K counted along it
Experiment: biochemical
quantity_measured: IC50 (µM)

| compound_structure_string | quantity_measured | value_observed |
| --- | --- | --- |
| Cc1nn(C)c(O)c1C(=O)c1ccc(C(F)(F)F)cc1S(C)(=O)=O | IC50 | 39.8 |
| Cc1ccc(S(=O)(=O)Oc2c(C(=O)c3ccc(Cl)cc3Cl)c(C)nn2C)cc1 | IC50 | 39.8 |

---

Target: Arabidopsis HPPD single point mutant "SEQ ID No. 48" (Arabidopsis thaliana, UniProt P93836, K421Q)
Construct: encoding mutant HPPD polypeptide, plus containing at the 5' end a nucleic acid encoding an alanine and 6 histidine amino acids
Test: biochemical
Description: In this content, pI50-value means the log value of the concentration of inhibitor necessary to inhibit 50% of the enzyme activity in molar concentration.
Recorded IC50, one value per entry.

| molecule | IC50 |
| --- | --- |
| Cc1nn(C)c(O)c1C(=O)c1ccc(C(F)(F)F)cc1S(C)(=O)=O [Pyrasulfotole] | 15.8 µM |
| Cc1ccc(S(=O)(=O)Oc2c(C(=O)c3ccc(Cl)cc3Cl)c(C)nn2C)cc1 [Pyrazolat] | 10 µM |
